- STUDY SYSTEM: Misshapen-like kinase 1 (Homo sapiens)
- ASSAY SETUP: at 1 µM
Listing: residual activity of selected compounds

Consider the reported residual activity for these compounds:
>>> val("O=C(c1ccccc1)c1ccc(N2CCOCC2)cc1O")
"85%"
>>> val("O=C1NC(=O)c2c1c1c3ccccc3[nH]c1n1cncc21")
"77%"
>>> val("Nc1ncnc2c1c(-c1ccc(Oc3ccccc3)cc1)cn2C1CCCC1")
"93%"

INPUT: Please state recorded residual activity (tested on Misshapen-like kinase 1 (Homo sapiens)) of Fc1ccc(-c2nc3n(c2-c2ccncc2)CCS3)cc1
OUTPUT: 96%

INPUT: Lab request: please report residual activity under test system Misshapen-like kinase 1 (Homo sapiens) for Cn1c2ccccc2c2c3c(c4c5ccccc5n(CCC#N)c4c21)CNC3=O
OUTPUT: 21%

INPUT: Request - read-out residual activity | tested on Misshapen-like kinase 1 (Homo sapiens) | compound O=C(CCCc1ccc(-c2ccccc2F)cc1)Nc1ccc(O)cc1
OUTPUT: 111%

INPUT: Can you look up residual activity on Misshapen-like kinase 1 (Homo sapiens) for CCCCc1c(-c2ccc(O)cc2)[nH]c2nccnc12 ?
OUTPUT: 97%

INPUT: Which measured residual activity belongs to Cn1sc(=O)n(Cc2ccccc2)c1=O , tested on Misshapen-like kinase 1 (Homo sapiens)?
OUTPUT: 96%

INPUT: Enter reported residual activity observed with Misshapen-like kinase 1 (Homo sapiens) for N#Cc1c(NC(=O)c2cccc3ccccc23)sc2c1CCCC2
OUTPUT: 95%

INPUT: Lab note: need residual activity with Misshapen-like kinase 1 (Homo sapiens) for entry COc1ccc(-c2cnc3c(-c4ccsc4)cnn3c2)cc1 , please look it up.
OUTPUT: 89%

INPUT: Please state recorded residual activity (tested on Misshapen-like kinase 1 (Homo sapiens)) of COc1cc2nccc(Oc3ccc(NC(=O)Nc4cc(C)on4)c(Cl)c3)c2cc1OC
OUTPUT: 71%

###

- STUDY SYSTEM: Tyrosine-protein kinase ABL2 (Homo sapiens) (UniProt P42684)
- Sequence (P42684 whole entry): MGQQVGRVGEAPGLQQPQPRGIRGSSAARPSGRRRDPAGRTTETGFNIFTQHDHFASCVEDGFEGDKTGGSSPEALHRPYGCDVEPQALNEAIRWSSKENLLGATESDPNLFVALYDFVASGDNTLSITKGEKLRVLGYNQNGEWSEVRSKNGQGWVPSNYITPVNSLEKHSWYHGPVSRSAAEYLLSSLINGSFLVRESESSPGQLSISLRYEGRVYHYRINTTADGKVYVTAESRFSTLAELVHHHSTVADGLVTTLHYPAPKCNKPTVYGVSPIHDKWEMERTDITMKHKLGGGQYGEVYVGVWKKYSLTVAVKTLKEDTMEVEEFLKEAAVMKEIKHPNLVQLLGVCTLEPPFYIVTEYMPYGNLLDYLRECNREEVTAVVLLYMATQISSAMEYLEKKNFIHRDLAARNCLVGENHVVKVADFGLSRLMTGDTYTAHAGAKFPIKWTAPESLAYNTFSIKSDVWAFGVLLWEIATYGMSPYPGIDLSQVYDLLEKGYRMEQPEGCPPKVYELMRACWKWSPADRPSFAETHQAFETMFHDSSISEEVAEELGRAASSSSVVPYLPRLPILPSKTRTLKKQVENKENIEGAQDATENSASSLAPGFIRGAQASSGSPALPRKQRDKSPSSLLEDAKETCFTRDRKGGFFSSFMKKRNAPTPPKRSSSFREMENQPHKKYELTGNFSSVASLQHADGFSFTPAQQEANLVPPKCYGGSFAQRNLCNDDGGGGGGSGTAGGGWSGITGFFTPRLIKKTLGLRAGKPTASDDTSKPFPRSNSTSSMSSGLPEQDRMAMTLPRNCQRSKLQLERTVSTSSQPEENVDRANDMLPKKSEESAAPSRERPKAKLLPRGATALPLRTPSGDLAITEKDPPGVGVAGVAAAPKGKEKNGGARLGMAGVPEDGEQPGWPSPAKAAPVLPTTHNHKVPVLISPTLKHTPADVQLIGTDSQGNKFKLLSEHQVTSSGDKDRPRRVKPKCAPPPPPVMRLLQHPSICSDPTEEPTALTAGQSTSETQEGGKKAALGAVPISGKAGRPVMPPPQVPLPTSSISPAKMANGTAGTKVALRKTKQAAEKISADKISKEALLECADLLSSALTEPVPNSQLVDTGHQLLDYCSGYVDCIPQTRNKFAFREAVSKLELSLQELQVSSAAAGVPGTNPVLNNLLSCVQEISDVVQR
- ASSAY SETUP: at 10 µM
Field: class. Source value: residual activity. Ranges: Low (below 50%), Mid (50% to below 80%), High (80% or more)

INPUT: Could you place Fc1ccc(-c2nc3n(c2-c2ccncc2)CCS3)cc1 in its proper category? Many thanks.
OUTPUT: Mid

INPUT: Category of COc1cc2ncnc(Nc3cccc(Cl)c3)c2cc1OC , please.
OUTPUT: Low

INPUT: Could you tell me which band CCCCc1c(-c2ccc(O)cc2)[nH]c2nccnc12 belongs to?
OUTPUT: Mid

###

Item-by-item account of residual activity
- STUDY SYSTEM: SRSF protein kinase 3 (Homo sapiens) (UniProt Q9UPE1)
- Sequence (Q9UPE1 whole entry): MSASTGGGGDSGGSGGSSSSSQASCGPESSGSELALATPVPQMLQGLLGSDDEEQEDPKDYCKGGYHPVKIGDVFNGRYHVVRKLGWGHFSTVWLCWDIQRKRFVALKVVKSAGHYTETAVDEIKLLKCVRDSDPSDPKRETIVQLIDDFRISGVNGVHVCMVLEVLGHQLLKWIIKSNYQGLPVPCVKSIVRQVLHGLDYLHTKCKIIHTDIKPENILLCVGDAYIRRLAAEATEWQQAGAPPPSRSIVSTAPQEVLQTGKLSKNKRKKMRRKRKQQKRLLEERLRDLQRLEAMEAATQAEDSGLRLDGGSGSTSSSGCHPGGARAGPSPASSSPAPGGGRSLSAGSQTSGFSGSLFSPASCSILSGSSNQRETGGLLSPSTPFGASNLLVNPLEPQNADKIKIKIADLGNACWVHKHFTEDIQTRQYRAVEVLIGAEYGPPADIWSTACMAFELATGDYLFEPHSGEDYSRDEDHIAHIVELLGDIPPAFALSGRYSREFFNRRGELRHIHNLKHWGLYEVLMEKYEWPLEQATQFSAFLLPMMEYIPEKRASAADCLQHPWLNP
- ASSAY SETUP: at 10 µM
- Description: Millipore: Percentage of residual kinase activity of SRPK3 at 10uM relative to control. Control inhibitor: Phosphoric acid* at 0.3uM. Buffer: 8 mM MOPS pH 7.0, 0.2 mM EDTA
Return type: number; implicit unit %.

Some solved cases for reference:
>>> val("O=c1cc(N2CCNCC2)oc2c(-c3ccccc3)cccc12")
89
>>> val("O=C1Cc2c([nH]c3ccc(Br)cc23)-c2ccccc2N1")
87

INPUT: What does the record list as residual activity for CC(C)(C)n1nc(Cc2cccc3ccccc23)c2c(N)ncnc21 ?
OUTPUT: 80

###

residual activity overview
- STUDY SYSTEM: Serine/threonine-protein kinase VRK2 (Homo sapiens) (UniProt Q86Y07);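 further: remaining VRK2 kinase activity expressed as percent of uninhibited control, measured in MOPS buffer at pH 7.0 containing EDTA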
- Sequence (Q86Y07 whole entry): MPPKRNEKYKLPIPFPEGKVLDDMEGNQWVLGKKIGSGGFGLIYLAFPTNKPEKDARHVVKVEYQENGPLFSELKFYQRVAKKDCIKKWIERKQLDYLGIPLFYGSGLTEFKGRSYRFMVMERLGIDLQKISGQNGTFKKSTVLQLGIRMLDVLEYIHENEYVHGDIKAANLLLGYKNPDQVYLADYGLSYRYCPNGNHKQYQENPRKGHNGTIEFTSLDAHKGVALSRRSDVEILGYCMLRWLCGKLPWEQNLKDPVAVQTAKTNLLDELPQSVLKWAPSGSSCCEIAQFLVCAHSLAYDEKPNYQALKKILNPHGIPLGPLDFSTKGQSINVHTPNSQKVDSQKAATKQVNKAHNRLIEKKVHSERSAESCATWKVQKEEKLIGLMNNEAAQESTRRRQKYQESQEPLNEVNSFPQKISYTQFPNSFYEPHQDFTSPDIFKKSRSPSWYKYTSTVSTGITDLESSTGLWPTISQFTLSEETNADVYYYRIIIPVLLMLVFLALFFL
- ASSAY SETUP: at 1 µM
- Description: Millipore: Percentage of residual kinase activity of VRK2 at 1uM relative to control. Control inhibitor: Phosphoric acid* at 0.3uM. Buffer: 8 mM MOPS pH 7.0, 0.2 mM EDTA
Give the number; % is assumed, so skip it.

>>> val("O=C1NC(=O)c2c1c1c3ccccc3[nH]c1n1cncc21")
93
>>> val("O=C1Nc2ccc(Cl)cc2/C1=C/c1cc(Cl)c(O)c(Cl)c1")
110
>>> val("O=C(c1ccccc1)c1ccc(N2CCOCC2)cc1O")
98
>>> val("CC(C)N(CCC(=O)c1ccc2ccccc2c1)Cc1ccccc1")
100

INPUT: Can you look up the measured residual activity of O=C(c1cc2cc(O)ccc2[nH]1)c1cc2cc(O)ccc2[nH]1 for me?
OUTPUT: 72

INPUT: Request the reported residual activity associated with Cn1sc(=O)n(Cc2ccccc2)c1=O
OUTPUT: 98

INPUT: For the molecule COc1ccc2c(c1)c(C1=C(c3c[nH]c4ccccc34)C(=O)NC1=O)cn2CCCN(C)C , what residual activity is on record?
OUTPUT: 102

INPUT: Entry CC(C)c1nn(-c2c(Cl)cccc2Cl)c2nc(Cc3ccc(OCCO)cc3)[nH]c(=O)c12 has what residual activity?
OUTPUT: 100

INPUT: # lookup: residual activity of Nc1nc(Nc2ccc(S(N)(=O)=O)cc2)nn1C(=O)c1c(F)cccc1F
OUTPUT: 97

INPUT: Requested read-out: residual activity. Entry: Nc1ncnc2c1cnn2-c1ccccc1
OUTPUT: 102

INPUT: What does the data say about its residual activity? Entry: Cc1cc(C)c(/C=C2\C(=O)Nc3ccccc32)[nH]1
OUTPUT: 98
